Taken from ChEMBL document CHEMBL1201862.

# System: DMS-273
# Test Method Notes: NCI tumour cell line growth inhibition, 48 h
The source made the active and inactive calls. Cut-off read from the data, not from the text of the source: active = GI50 up to about 1.1 µM and inactive = higher.
Select the correct class. Options are yes (1) (active), no (0) (inactive) and nothing else.

# example entries with known answers
| Compound | Category |
| --- | --- |
| O=C(c1ccc(Cl)cc1)c1cnc(Nc2ccccc2Cl)s1 | no (0) |
| COC(=O)C(=O)C(C(=O)Nc1cccc(C)c1C)C1Sc2ccccc2NC1=O (stereo not given) | no (0) |
| CCOCc1cc(=O)c2c(O)cc3c(c2o1)CCC(C)(C)O3 | no (0) |
| COc1ccc(N2C(=O)c3c(c4[nH]c5ccccc5c4c4ccc(C(C)(C)C)cc34)C2=O)cc1 | no (0) |
| CCCCCn1cnc2c1S(=O)(=O)N(C)C(NC(=O)c1ccccc1)=N2 | no (0) |

Kindly provide the recorded test outcome for the following compound: Cc1cc(C)c(C2=NO[C@@H]3[C@H]2C(=O)C=C2N(Cc4ccccc4)CCO[C@@]23O)c(C)c1
no (0)

Hi, sorry to bother you, what did the test record for Nc1nc(F)nc2c1ncn2C1OC(COP(=O)(O)O)C(O)C1O (stereo not given) ?
no (0)

Assay outcome for CCOC(=O)c1nc2ccc(OC)cc2c2c1Cc1ccccc1-2 : what was it?
no (0)

Lab log entry: COC(=O)C12OCC34C(CC5C(C)C6=CC(=O)OC6=CC5(C)C3C(O)C1O)OC(=O)C(O)C24 (stereo not given) — outcome as called in the assay?
yes (1)

What classification did CCOC(OC1=C(C#N)CCC1)C(CC)[Se]c1ccccc1 (stereo not given) end up with in this test?
no (0)

* * *

# System: RPMI-8226
# Test Method Notes: NCI tumour cell line growth inhibition, 48 h
Activity calls are given as the source filed them. No stated cut-off is given here; in the data, active = GI50 up to about 1.1 µM and inactive = higher.
Field 'call' accepts label 1 = active, label 0 = inactive

Before answering, review these 6 worked examples.
| Molecule | Category |
| --- | --- |
| Cn1ccnc1CCc1ccc(F)cc1F | label 0 |
| N#CC(C#N)C1CN2CCC1CC2 (configuration not stated) | label 0 |
| c1cc(CSSCc2ccncc2)ccn1 | label 0 |
| COc1cc(C2c3cc4c(cc3C(=O)C3CCC(=O)N32)OCO4)cc(OC)c1O (configuration not stated) | label 0 |
| COC(=O)C(=O)C(C(=O)C(=O)Nc1ccccc1C(=O)OC)c1nc2ccc(C(=O)c3ccccc3)cc2nc1O (configuration not stated) | label 0 |
| CCOC(=O)c1cccc(NC(=O)CBr)c1 | label 1 |

Kindly consider the entry below.
Per the records of this test, what outcome belongs to CSc1nc2c(=O)n(-c3ccccc3)c(=S)n(-c3ccccc3)c2s1 ?
label 0

* * *

# Tested on: SW-620
# Test Method Notes: NCI tumour cell line growth inhibition, 48 h
Activity calls are given as the source filed them. Rule as the data show it: active = GI50 up to about 1.1 µM and inactive = higher.
Can you answer with just one of these options? active, inactive

Example entries and their recorded answers appear below.
| Molecule | Category |
| --- | --- |
| O=[N+]([O-])c1cccc2nc3ccccc3c(NCCC[N+]3([O-])CCOCC3)c12 | active |
| CC(=O)/C(=C/NC(=S)c1cccnc1)C(=O)Nc1ccccc1C | inactive |
| CN1CCc2nc(N)nc(-c3nc(N)nc4c3CN(C)CC4)c2C1 | inactive |
| O=C(O)c1cc(CC2Cc3cc4c(cc3C2=O)CCC4)cc2c1CCC2 (stereo not given) | inactive |
| CCCCCC(=O)Nc1[nH]nnc1C(N)=O | inactive |

Each molecule tested received a call. Report the one for Cn1cnc([N+](=O)[O-])c1SCC(=O)O .
inactive

Hi, sorry to bother you, what did the test record for CC1=N/C(=C\c2c(O)ccc3ccccc23)C(=O)O1 ?
inactive

# lookup: test call for CCOCc1cc(=O)c2c(O)cc3c(c2o1)CCC(C)(C)O3
inactive

What is the recorded call for this molecule in the test? CCNC(=O)Nc1cccc(C)n1
inactive

Lab log entry: CN(C)CCNc1ccc2ncnc3c2c1C(=O)c1ccccc1-3 — outcome as called in the assay?
active

* * *

# Test system: SK-OV-3
# Test Method Notes: NCI tumour cell line growth inhibition, 48 h
The source made the active and inactive calls. Cut-off read from the data, not from the text of the source: active = GI50 up to about 1.1 µM and inactive = higher.
Recorded Endpoint: GI50

| Compound | Observed Value |
| --- | --- |
| N=C(N)N/N=C/c1c(-c2ccc(Cl)cc2)nc2sccn12 | 2.66 µM (inactive) |
| COC(=O)C(=O)C(C(=O)C(=O)Nc1cccc(C(C)=O)c1)c1nc2ccccc2nc1O (stereo not given) | > 100 µM (inactive) |
| COc1cc2c(cc1OC)C1=Cc3cc(OC)c(OC)cc3C(C)N1C=C2 (stereo not given) | > 100 µM (inactive) |
| O=C1C=CC2(C=C1)O[C@H](CCc1ccccc1)[C@@H](CCc1ccccc1)O2 | > 100 µM (inactive) |

Turning now to a further compound:
Requested read-out: GI50. Entry: c1ccc(Nc2nnc(CCCCCCCCc3nnc(Nc4ccccc4)o3)o2)cc1
> 100 µM (inactive)

* * *

Examples of compounds with documented GI50 follow.
# System: LOX IMVI
# Test Method Notes: NCI tumour cell line growth inhibition, 48 h
Calls of active or inactive are those of the source. Rule as the data show it: active = GI50 up to about 1.1 µM and inactive = higher.

Solved entries:
| Compound | Observed Value |
| --- | --- |
| CCOc1ccccc1NC(=O)CCc1n[nH]c(=S)o1 | > 100 µM (inactive) |
| CCn1cc(C(=O)O)c(=O)c2cc3c(cc21)S(=O)(=O)CC3 | > 100 µM (inactive) |
| CN(C)CCCN1c2ccccc2Sc2ccc3ccccc3c21 | 4.91 µM (inactive) |
| O=C(O)/C(Cl)=C(/Cl)C(=O)Nc1cccc(Cl)c1 | 13.8 µM (inactive) |
| S=C(Nc1cccc(C2(N3CCCCC3)CCCCC2)c1)Nc1cccc(C2(N3CCCCC3)CCCCC2)c1 | 12.7 µM (inactive) |
| CC(C)=CCNc1ncnc2c1ncn2CCC(=O)O | > 100 µM (inactive) |
| Clc1ccc(OCCSCCCCCCCCCCSCCOc2ccc(Cl)cc2)cc1 | > 100 µM (inactive) |
| COCC1N=C(c2cc(OC)c(OC)c(OC)c2-c2cc3c(cc2[C@@H](C)O)OCO3)O[C@H]1c1ccccc1 (stereo partly drawn) | > 100 µM (inactive) |
| Cc1cc(C)c(C2=NO[C@@H]3[C@H]2C(=O)C=C2N(Cc4ccccc4)CCO[C@@]23O)c(C)c1 | > 100 µM (inactive) |
| CN(C)[C@H]1CC[C@H]2[C@@H]3CCC4C[C@@H](NC(=O)NC(Cc5ccccc5)c5nccs5)CC[C@]4(C)[C@H]3CC[C@]12C (stereo partly drawn) | 1.66 µM (inactive) |

Can you look up the measured GI50 of CCOC(=O)N1CCC2C(=C(C)C(C)C3=C2C(=O)c2ccccc2C3=O)C1 (stereo not drawn) for me?
3.61 µM (inactive)

Which value of GI50 has been reported for CC1(C)O[C@@H](CP(c2ccc3ccccc3c2)c2ccc3ccccc3c2)[C@H](CP(c2ccc3ccccc3c2)c2ccc3ccccc3c2)O1 in the records?
> 100 µM (inactive)

Sample CCN(CC)C(=O)C1=C(C)NC(C)=C(C(=O)N(CC)CC)C1 — what was its GI50?
> 100 µM (inactive)

* * *

Below is a list of entries, each paired with its recorded GI50 value.
# Test system: NCI/ADR-RES
# Test Method Notes: NCI tumour cell line growth inhibition, 48 h
Active and inactive are the calls of the source. Cut-off read from the data, not from the text of the source: active = GI50 up to about 1.1 µM and inactive = higher.

Example entries and their recorded answers appear below.
| Compound | System Tested | Observed Value |
| --- | --- | --- |
| CCCCCCCCCCCCCCCCOP(=O)(O)OCC(N)C(=O)O (stereo unspecified) | NCI/ADR-RES | 33.3 µM (inactive) |
| S=C1NC2=C(COc3ccccc32)C(c2ccc(Cl)cc2)N1 (stereo unspecified) | NCI/ADR-RES | 18.9 µM (inactive) |
| CN(C)C(=O)C(F)(F)C(c1ccccc1Br)C1C(=O)N(C)C(=O)N(C)C1=O (stereo unspecified) | NCI/ADR-RES | > 100 µM (inactive) |
| Cc1nn(-c2ccccc2)c2nc(S)cnc12 | NCI/ADR-RES | > 100 µM (inactive) |
| C[n+]1c2ccccc2n2c3ccccc3c(NCc3ccco3)c(C#N)c21 | NCI/ADR-RES | 2.2 µM (inactive) |

// below: GI50 requested for another compound
// returns reported GI50 for input COc1ccc(C(OCC2OC(n3cc(C)c(=O)[nH]c3=O)CC2n2cc(Cn3cc(Br)c(=O)[nH]c3=O)nn2)(c2ccccc2)c2ccccc2)cc1 (stereo unspecified)
> 100 µM (inactive)

* * *

Items are presented alongside their recorded GI50.
# Test system: SK-MEL-28
# Test Method Notes: NCI tumour cell line growth inhibition, 48 h
The source made the active and inactive calls. Cut-off read from the data, not from the text of the source: active = GI50 up to about 1.1 µM and inactive = higher.

Consider the reported GI50 for these molecules:
| Molecule | System Tested | GI50 |
| --- | --- | --- |
| O=C(O)C[C@@H](Cl)[C@H](NC(=O)OCc1ccccc1)C(=O)O | SK-MEL-28 | > 100 µM (inactive) |
| Cc1ccc2c(=O)[nH]sc2c1 | SK-MEL-28 | 17.9 µM (inactive) |
| S=C1NC2=C(COc3ccccc32)C(c2ccc(Cl)cc2)N1 (stereo not given) | SK-MEL-28 | 21.9 µM (inactive) |
| Cc1ccc(S(=O)(=O)N/N=C/c2oc(-c3ccccc3Cl)c(-c3ccccc3Cl)c2[N+](=O)[O-])cc1 | SK-MEL-28 | 22.9 µM (inactive) |
| COc1cc(C2c3cc4c(cc3C(=O)C3CCC(=O)N32)OCO4)cc(OC)c1O (stereo not given) | SK-MEL-28 | > 50 µM (inactive) |
| CCOC(=O)C1(C(=O)OCC)C[C@@H](C)[C@@H](O)C1 | SK-MEL-28 | > 100 µM (inactive) |
| CN(C)CCCN1c2ccccc2Sc2ccc3ccccc3c21 | SK-MEL-28 | 2.08 µM (inactive) |
| CC1(c2cccc(C(F)(F)F)c2)CC(c2cccc(C(F)(F)F)c2)=C(C#N)C(=C(C#N)C#N)N1 (stereo not given) | SK-MEL-28 | 16 µM (inactive) |

Param item = CSc1ncnc2c1cnn2Cc1cn(CCCCO)nn1 ; retrieve measured GI50.
> 100 µM (inactive)

If you can, please state the reported GI50 value of CC(c1ccccc1)N1CC(C)(c2ccccc2)N(O)C(c2ccccc2)C1C (stereo not given) .
4.08 µM (inactive)
